System: PPARg:RXRa 270nM:90nM, anti-RXR (NR concentration 270 nM, RXRa partner concentration 90 nM)
Assay: PBM binding z-score (relative to random genomic background probes); higher = stronger binding; sequences stand for … in GC…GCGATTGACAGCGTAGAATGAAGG
// thresholds for PBM binding z-score classes: low = under 0.8, medium = from 0.8 up to 3, high = 3 and over

{"primarySequence": "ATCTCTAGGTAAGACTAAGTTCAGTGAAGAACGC", "className": "medium"}
{"primarySequence": "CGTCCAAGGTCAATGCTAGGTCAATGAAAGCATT", "className": "high"}
{"primarySequence": "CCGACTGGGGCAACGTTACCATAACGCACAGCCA", "className": "low"}
{"primarySequence": "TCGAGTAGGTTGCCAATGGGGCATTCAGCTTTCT", "className": "low"}
{"primarySequence": "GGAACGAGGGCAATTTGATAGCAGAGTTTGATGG", "className": "low"}
{"primarySequence": "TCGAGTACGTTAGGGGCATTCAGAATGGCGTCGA", "className": "low"}
{"primarySequence": "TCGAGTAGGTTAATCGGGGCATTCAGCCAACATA", "className": "medium"}
{"primarySequence": "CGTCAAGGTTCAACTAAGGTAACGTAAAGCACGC", "className": "medium"}
{"primarySequence": "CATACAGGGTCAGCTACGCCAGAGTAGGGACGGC", "className": "high"}
{"primarySequence": "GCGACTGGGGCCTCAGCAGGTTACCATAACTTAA", "className": "low"}
{"primarySequence": "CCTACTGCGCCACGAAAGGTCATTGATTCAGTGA", "className": "high"}
{"primarySequence": "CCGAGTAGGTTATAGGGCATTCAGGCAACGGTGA", "className": "high"}
{"primarySequence": "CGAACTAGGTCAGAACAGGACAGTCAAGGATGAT", "className": "high"}
{"primarySequence": "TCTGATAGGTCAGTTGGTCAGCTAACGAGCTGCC", "className": "medium"}
{"primarySequence": "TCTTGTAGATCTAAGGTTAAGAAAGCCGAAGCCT", "className": "high"}
{"primarySequence": "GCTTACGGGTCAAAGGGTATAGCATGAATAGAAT", "className": "high"}
{"primarySequence": "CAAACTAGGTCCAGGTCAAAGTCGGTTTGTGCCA", "className": "high"}
{"primarySequence": "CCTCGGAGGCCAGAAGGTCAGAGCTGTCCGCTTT", "className": "medium"}
{"primarySequence": "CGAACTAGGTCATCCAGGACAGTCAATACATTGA", "className": "high"}
{"primarySequence": "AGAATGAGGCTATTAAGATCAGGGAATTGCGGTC", "className": "low"}
{"primarySequence": "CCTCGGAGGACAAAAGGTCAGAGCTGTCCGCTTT", "className": "high"}
{"primarySequence": "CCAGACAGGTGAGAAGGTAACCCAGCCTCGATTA", "className": "low"}
{"primarySequence": "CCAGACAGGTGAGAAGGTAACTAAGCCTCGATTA", "className": "low"}
{"primarySequence": "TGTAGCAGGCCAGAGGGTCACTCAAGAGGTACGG", "className": "medium"}
{"primarySequence": "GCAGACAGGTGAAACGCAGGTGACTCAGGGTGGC", "className": "low"}

---

Each record here notes measured PBM binding z-score.
Test system: THRa homodimer (NR concentration 90 nM)
Assay: PBM binding z-score (relative to random genomic background probes); higher = stronger binding; sequences stand for … in GC…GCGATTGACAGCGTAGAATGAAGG

{"primarySequence": "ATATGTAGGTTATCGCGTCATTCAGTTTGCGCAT", "PBM binding z-score": 0.235}
{"primarySequence": "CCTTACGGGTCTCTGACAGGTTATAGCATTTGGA", "PBM binding z-score": -0.175}
{"primarySequence": "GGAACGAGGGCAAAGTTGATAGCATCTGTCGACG", "PBM binding z-score": -0.111}
{"primarySequence": "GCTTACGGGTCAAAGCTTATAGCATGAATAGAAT", "PBM binding z-score": -0.718}
{"primarySequence": "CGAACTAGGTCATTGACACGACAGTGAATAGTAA", "PBM binding z-score": 0.751}
{"primarySequence": "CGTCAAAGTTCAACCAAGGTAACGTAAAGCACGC", "PBM binding z-score": 1.18}
{"primarySequence": "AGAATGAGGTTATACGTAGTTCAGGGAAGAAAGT", "PBM binding z-score": 0.588}
{"primarySequence": "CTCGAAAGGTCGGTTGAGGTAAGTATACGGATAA", "PBM binding z-score": 0.648}
{"primarySequence": "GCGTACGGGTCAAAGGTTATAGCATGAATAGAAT", "PBM binding z-score": -0.479}
{"primarySequence": "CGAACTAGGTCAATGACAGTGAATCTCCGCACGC", "PBM binding z-score": 0.673}
{"primarySequence": "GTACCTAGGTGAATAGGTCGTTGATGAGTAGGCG", "PBM binding z-score": -0.182}
{"primarySequence": "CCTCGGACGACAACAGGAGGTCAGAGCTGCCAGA", "PBM binding z-score": 0.602}
{"primarySequence": "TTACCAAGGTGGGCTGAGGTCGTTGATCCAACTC", "PBM binding z-score": 1.5}
{"primarySequence": "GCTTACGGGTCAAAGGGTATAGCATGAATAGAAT", "PBM binding z-score": -0.191}
{"primarySequence": "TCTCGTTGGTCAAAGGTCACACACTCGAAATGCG", "PBM binding z-score": 2.63}
{"primarySequence": "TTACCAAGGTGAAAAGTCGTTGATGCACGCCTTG", "PBM binding z-score": 0.0466}
{"primarySequence": "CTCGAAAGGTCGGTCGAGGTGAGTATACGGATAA", "PBM binding z-score": 0.386}
{"primarySequence": "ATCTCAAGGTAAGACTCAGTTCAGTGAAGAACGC", "PBM binding z-score": 0.884}
{"primarySequence": "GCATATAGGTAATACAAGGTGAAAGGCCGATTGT", "PBM binding z-score": 0.753}
{"primarySequence": "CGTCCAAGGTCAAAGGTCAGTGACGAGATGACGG", "PBM binding z-score": 2.69}
{"primarySequence": "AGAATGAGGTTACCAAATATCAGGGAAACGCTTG", "PBM binding z-score": 0.824}
{"primarySequence": "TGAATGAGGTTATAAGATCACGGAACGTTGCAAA", "PBM binding z-score": 0.188}
{"primarySequence": "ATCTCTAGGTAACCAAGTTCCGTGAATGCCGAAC", "PBM binding z-score": 0.462}
{"primarySequence": "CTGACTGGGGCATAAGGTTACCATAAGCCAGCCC", "PBM binding z-score": 1.35}
{"primarySequence": "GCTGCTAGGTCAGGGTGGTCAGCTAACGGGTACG", "PBM binding z-score": 0.797}
{"primarySequence": "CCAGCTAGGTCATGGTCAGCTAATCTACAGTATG", "PBM binding z-score": 1.25}

---

Tested on: RXRa DBDmut IVT, anti-RXR (DBD mutation: RXRa K156A/R161A, NR concentration 90 nM)
Assay: PBM binding z-score (relative to random genomic background probes); higher = stronger binding; sequences stand for … in GC…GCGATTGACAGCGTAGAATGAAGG
Each record here notes measured PBM binding z-score.
assayEndpoint: PBM binding z-score

{"primarySequence": "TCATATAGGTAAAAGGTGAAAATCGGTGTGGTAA", "assayEndpoint": "PBM binding z-score", "reading": 1.69}
{"primarySequence": "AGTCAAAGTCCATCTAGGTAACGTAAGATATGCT", "assayEndpoint": "PBM binding z-score", "reading": 1.23}
{"primarySequence": "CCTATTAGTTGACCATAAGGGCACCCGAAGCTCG", "assayEndpoint": "PBM binding z-score", "reading": 0.326}
{"primarySequence": "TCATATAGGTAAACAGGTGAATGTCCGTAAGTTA", "assayEndpoint": "PBM binding z-score", "reading": 1.27}
{"primarySequence": "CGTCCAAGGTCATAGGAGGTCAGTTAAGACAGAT", "assayEndpoint": "PBM binding z-score", "reading": 4.09}
{"primarySequence": "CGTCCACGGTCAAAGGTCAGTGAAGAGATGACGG", "assayEndpoint": "PBM binding z-score", "reading": 0.983}
{"primarySequence": "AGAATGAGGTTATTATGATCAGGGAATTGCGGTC", "assayEndpoint": "PBM binding z-score", "reading": 2.21}
{"primarySequence": "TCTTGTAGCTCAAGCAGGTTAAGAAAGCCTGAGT", "assayEndpoint": "PBM binding z-score", "reading": 0.0335}
{"primarySequence": "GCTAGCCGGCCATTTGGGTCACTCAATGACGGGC", "assayEndpoint": "PBM binding z-score", "reading": -0.739}
{"primarySequence": "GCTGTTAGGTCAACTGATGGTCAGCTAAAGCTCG", "assayEndpoint": "PBM binding z-score", "reading": 2.11}
{"primarySequence": "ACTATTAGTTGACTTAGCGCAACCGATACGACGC", "assayEndpoint": "PBM binding z-score", "reading": 0.553}
{"primarySequence": "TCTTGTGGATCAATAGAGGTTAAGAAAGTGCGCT", "assayEndpoint": "PBM binding z-score", "reading": 0.749}
